Biological target: T1, IL-18 binding protein (IL-18BP) (UniProt O95998 31-194)
T1 sequence (looked up): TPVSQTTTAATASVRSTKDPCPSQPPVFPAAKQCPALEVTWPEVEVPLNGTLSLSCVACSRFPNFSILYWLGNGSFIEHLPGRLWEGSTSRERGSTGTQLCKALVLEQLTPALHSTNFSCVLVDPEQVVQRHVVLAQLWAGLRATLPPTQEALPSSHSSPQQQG
Assay: cell-based or functional assay
Each entry belongs to exactly one class, chosen by where its Activity, +100 nM BP, DF-1000002 falls: band 1: < 0.2; band 2: ≥ 0.2 and < 0.7; band 3: ≥ 0.7

Here are 3 binders together with their reported answers.
- binder: "IL-18 variant G3P, E6G, D54P, S55W, N91E, R104K (ligand) YFPKLGSKLSVIRNLNDQVLFIDQGNRPLFEDMTDSDMRDNAPRTIFIISMYKPWQPRGMAVTISVKSEKISTLSSENKIISFKEMNPPDEIKDTKSDIIFFQKSVPGHDNKMQFESSSYEGYFLASEKERDLFKLILKKEDELGDRSIMFTVQNED"
  labelValue: "band 1"
- binder: "IL-18 variant G3P, E6K, D54Y, S55P, T63S, N91S, R104Q, Q154R (ligand) YFPKLKSKLSVIRNLNDQVLFIDQGNRPLFEDMTDSDMRDNAPRTIFIISMYKYPQPRGMAVSISVKSEKISTLSSENKIISFKEMNPPDSIKDTKSDIIFFQQSVPGHDNKMQFESSSYEGYFLASEKERDLFKLILKKEDELGDRSIMFTVRNED"
  labelValue: "band 3"
- binder: "IL-18 variant G3P, E6K, K53M, D54W, S55N, T63S, N91I (ligand) YFPKLKSKLSVIRNLNDQVLFIDQGNRPLFEDMTDSDMRDNAPRTIFIISMYMWNQPRGMAVSISVKSEKISTLSSENKIISFKEMNPPDIIKDTKSDIIFFQRSVPGHDNKMQFESSSYEGYFLASEKERDLFKLILKKEDELGDRSIMFTVQNED"
  labelValue: "band 2"

Ask: # classify by Activity, +100 nM BP, DF-1000002 band: IL-18 variant G3P, E6G, D54T, S55W, N91E, R104K (ligand) YFPKLGSKLSVIRNLNDQVLFIDQGNRPLFEDMTDSDMRDNAPRTIFIISMYKTWQPRGMAVTISVKSEKISTLSSENKIISFKEMNPPDEIKDTKSDIIFFQKSVPGHDNKMQFESSSYEGYFLASEKERDLFKLILKKEDELGDRSIMFTVQNED
Result: band 2

Ask: Category of IL-18 variant G3I, E6D, D54A, S55F, N91Y, R104H (ligand) YFIKLDSKLSVIRNLNDQVLFIDQGNRPLFEDMTDSDMRDNAPRTIFIISMYKAFQPRGMAVTISVKSEKISTLSSENKIISFKEMNPPDYIKDTKSDIIFFQHSVPGHDNKMQFESSSYEGYFLASEKERDLFKLILKKEDELGDRSIMFTVQNED :
Result: band 3

Ask: Which Activity, +100 nM BP, DF-1000002 category applies to IL-18 variant G3H, E6Q, K53N, D54S, S55P, T63A, N91I, R104S (ligand) YFHKLQSKLSVIRNLNDQVLFIDQGNRPLFEDMTDSDMRDNAPRTIFIISMYNSPQPRGMAVAISVKSEKISTLSSENKIISFKEMNPPDIIKDTKSDIIFFQSSVPGHDNKMQFESSSYEGYFLASEKERDLFKLILKKEDELGDRSIMFTVQNED here?
Result: band 2

Ask: Which Activity, +100 nM BP, DF-1000002 category applies to IL-18 variant G3L, E6Q, T63S, N91L, R104T (ligand) YFLKLQSKLSVIRNLNDQVLFIDQGNRPLFEDMTDSDMRDNAPRTIFIISMYKDSQPRGMAVSISVKSEKISTLSSENKIISFKEMNPPDLIKDTKSDIIFFQTSVPGHDNKMQFESSSYEGYFLASEKERDLFKLILKKEDELGDRSIMFTVQNED here?
Result: band 3

Ask: Any idea which band IL-18 variant G3P, E6N, D54Y, T63S, N91S, R104Q (ligand) YFPKLNSKLSVIRNLNDQVLFIDQGNRPLFEDMTDSDMRDNAPRTIFIISMYKYSQPRGMAVSISVKSEKISTLSSENKIISFKEMNPPDSIKDTKSDIIFFQQSVPGHDNKMQFESSSYEGYFLASEKERDLFKLILKKEDELGDRSIMFTVQNED is in?
Result: band 2

Ask: // bin(item) where item = IL-18 variant G3P, E6V, K53A, D54W, S55P, T63S, N91L, R104K (ligand) YFPKLVSKLSVIRNLNDQVLFIDQGNRPLFEDMTDSDMRDNAPRTIFIISMYAWPQPRGMAVSISVKSEKISTLSSENKIISFKEMNPPDLIKDTKSDIIFFQKSVPGHDNKMQFESSSYEGYFLASEKERDLFKLILKKEDELGDRSIMFTVQNED
Result: band 3

Ask: Please indicate the class for IL-18 variant G3P, E6V, K53A, D54W, S55P, T63S, N91L, R104K, Q154R (ligand) YFPKLVSKLSVIRNLNDQVLFIDQGNRPLFEDMTDSDMRDNAPRTIFIISMYAWPQPRGMAVSISVKSEKISTLSSENKIISFKEMNPPDLIKDTKSDIIFFQKSVPGHDNKMQFESSSYEGYFLASEKERDLFKLILKKEDELGDRSIMFTVRNED based on its Activity, +100 nM BP, DF-1000002.
Result: band 2

Ask: # classify by Activity, +100 nM BP, DF-1000002 band: IL-18 variant G3L, E6Q, T63S, N91L, R104P (ligand) YFLKLQSKLSVIRNLNDQVLFIDQGNRPLFEDMTDSDMRDNAPRTIFIISMYKDSQPRGMAVSISVKSEKISTLSSENKIISFKEMNPPDLIKDTKSDIIFFQPSVPGHDNKMQFESSSYEGYFLASEKERDLFKLILKKEDELGDRSIMFTVQNED
Result: band 1

Ask: Would you mind sorting IL-18 variant E6D, D54T, S55W, T63S, N91S, R104T (ligand) YFGKLDSKLSVIRNLNDQVLFIDQGNRPLFEDMTDSDMRDNAPRTIFIISMYKTWQPRGMAVSISVKSEKISTLSSENKIISFKEMNPPDSIKDTKSDIIFFQTSVPGHDNKMQFESSSYEGYFLASEKERDLFKLILKKEDELGDRSIMFTVQNED into the appropriate category?
Result: band 2

Ask: Looking at IL-18 variant G3L, E6Q, T63H, N91M, R104H (ligand) YFLKLQSKLSVIRNLNDQVLFIDQGNRPLFEDMTDSDMRDNAPRTIFIISMYKDSQPRGMAVHISVKSEKISTLSSENKIISFKEMNPPDMIKDTKSDIIFFQHSVPGHDNKMQFESSSYEGYFLASEKERDLFKLILKKEDELGDRSIMFTVQNED , which class would you pick?
Result: band 1
